Reference source for all entries: patent US20240139189A1

Assay: Kinetic solubility
Details: kinetic from dmso stock
MEASUREMENT_NAME: solubility kinetic (µM)
The reply should be a number in µM, with the unit left off.

Query: Report solubility kinetic for CC1(C)CCN(Cc2ccc(N3CC(=O)NC4(CCN(c5nc(Cl)nc6[nH]ccc56)CC4)C3)cc2)CC1 [Compound 19] please.
Result: 45

====

Target: METTL3 (Homo sapiens (Human), UniProt Q86U44)
Sequence (Q86U44 whole entry, looked up): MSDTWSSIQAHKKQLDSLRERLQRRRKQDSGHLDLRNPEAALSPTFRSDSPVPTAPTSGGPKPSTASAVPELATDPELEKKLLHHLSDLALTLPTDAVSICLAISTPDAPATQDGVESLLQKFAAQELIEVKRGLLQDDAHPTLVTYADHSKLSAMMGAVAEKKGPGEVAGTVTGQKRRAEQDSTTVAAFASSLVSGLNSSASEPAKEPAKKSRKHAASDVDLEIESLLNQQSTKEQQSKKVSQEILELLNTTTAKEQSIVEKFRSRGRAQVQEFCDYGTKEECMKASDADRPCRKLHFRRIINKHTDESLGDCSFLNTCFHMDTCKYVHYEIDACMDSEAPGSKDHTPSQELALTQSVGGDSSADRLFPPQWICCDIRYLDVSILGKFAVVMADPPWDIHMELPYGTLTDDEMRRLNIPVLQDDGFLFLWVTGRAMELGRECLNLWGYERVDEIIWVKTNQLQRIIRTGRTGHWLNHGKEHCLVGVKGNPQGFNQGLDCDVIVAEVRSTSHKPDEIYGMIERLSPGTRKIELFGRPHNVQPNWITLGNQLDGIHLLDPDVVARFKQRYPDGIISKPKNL
Sequence (Q9HCE5 whole entry partner, looked up): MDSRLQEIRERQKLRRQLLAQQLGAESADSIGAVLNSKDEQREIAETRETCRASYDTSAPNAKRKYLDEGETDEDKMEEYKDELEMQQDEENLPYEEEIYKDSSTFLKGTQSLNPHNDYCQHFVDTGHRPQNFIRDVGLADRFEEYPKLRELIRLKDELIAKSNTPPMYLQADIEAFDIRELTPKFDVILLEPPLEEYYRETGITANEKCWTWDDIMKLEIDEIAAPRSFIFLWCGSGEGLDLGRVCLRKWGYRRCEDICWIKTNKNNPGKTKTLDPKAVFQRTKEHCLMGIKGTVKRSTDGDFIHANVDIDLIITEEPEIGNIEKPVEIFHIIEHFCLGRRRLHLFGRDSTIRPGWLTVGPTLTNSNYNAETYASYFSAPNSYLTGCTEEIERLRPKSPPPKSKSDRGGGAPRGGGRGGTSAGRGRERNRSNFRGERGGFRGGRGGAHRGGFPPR
Assay: TR-FRET biochemical assay (time resolved-Förster resonance energy transfer)
Conditions: calculated with DataWarrior
From the text: The bonds formed are depicted in red. The IC50 values refer to the biochemical assay based on time resolved-Forster resonance energy transfer (TR-FRET). B) Superimposition of compounds 1 (grey, from X-ray with METTL3, PDB code: 7NHI) and 2 (cyan, drawn in Pymol).
MEASUREMENT_NAME: LLE (lipophilic ligand efficiency, pIC50-logP)

Query: Report LLE (lipophilic ligand efficiency, pIC50-logP) for CC1(C)CCN(Cc2ccc(N3CC(=O)NC4(CCN(c5nc(Cl)nc6[nH]ccc56)CC4)C3)cc2)CC1 [Compound 19] please.
Result: 3.9

Query: Report LLE (lipophilic ligand efficiency, pIC50-logP) for CC1(C)CCN(Cc2ccc(C(=O)NC3CCN(c4cc(NCc5ccccc5)ncn4)CC3)cn2)CC1 [Compound 6] please.
Result: 1.7

Query: Report LLE (lipophilic ligand efficiency, pIC50-logP) for CN(C)c1cc(N2CCC3(CC2)CN(c2ccc(CN4CCC(C)(C)CC4)cc2)CC(=O)N3)ncn1 [Compound 14] please.
Result: 3.2

Query: Report LLE (lipophilic ligand efficiency, pIC50-logP) for CNc1cc(N2CCCC(O)(CNC(=O)c3ccc(CN4CCC(C)(C)CC4)cc3)C2)ncn1 (centres unmarked) [Compound 1] please.
Result: 2.5

Query: Report LLE (lipophilic ligand efficiency, pIC50-logP) for CC(C)Nc1cc(N2CCC3(CC2)CN(c2ccc(CN4CCC(C)(C)CC4)cc2)CC(=O)N3)ncn1 [Compound 15] please.
Result: 3.2

Query: Report LLE (lipophilic ligand efficiency, pIC50-logP) for CNc1cc(N2CCC3(CC2)CN(c2ccc(CN4CCC(C)(C)CC4)cc2)C(=O)N3)ncn1 [Compound 12] please.
Result: 2.6

Query: Report LLE (lipophilic ligand efficiency, pIC50-logP) for CNc1cc(N2CC3(CN(c4ccc(CN5CCC(C)(C)CC5)cc4)CC(=O)N3)C2)ncn1 [Compound 11] please.
Result: 4.5

Query: Report LLE (lipophilic ligand efficiency, pIC50-logP) for CC1(C)CCN(Cc2ccc(N3CC(=O)NC4(CCN(c5ccnc6[nH]ccc56)CC4)C3)cc2)CC1 [Compound 18] please.
Result: 2.3

====

Molecular target: METTL3 (Homo sapiens (Human), UniProt Q86U44)
Assay: TR-FRET biochemical assay (time resolved-Förster resonance energy transfer)
Conditions: TR-FRET assay
MEASUREMENT_NAME: IC50 (nM)
The reply should be a number in nM, with the unit left off.

Query: Report IC50 for CNc1cc(N2CC3(CN(c4ccc(CN5CCC(C)(C)CC5)cc4)CC(=O)N3)C2)ncn1 please.
Result: 440

Query: Report IC50 for CC1(C)CCN(Cc2ccc(N3CC(=O)NC4(CCN(c5ccnc6[nH]ccc56)CC4)C3)cc2)CC1 please.
Result: 4500

Query: Report IC50 for CNc1cc(N2CCC3(CC2)CN(c2ccc(CN4CCC(C)(C)CC4)c(F)c2)CC(=O)N3)ncn1 please.
Result: 32

Query: Report IC50 for CC1(C)CCN(Cc2ccc(N3CC(=O)NC4(CCN(c5nc(Cl)nc6[nH]ccc56)CC4)C3)cc2)CC1 please.
Result: 24

Query: Report IC50 for CC1(C)CCN(Cc2ccc(N3CC(=O)NC4(CCN(c5cc(NCc6ccccc6)ncn5)CC4)C3)cc2)CC1 please.
Result: 26

Query: Report IC50 for CC1(C)CCN(Cc2ccc(N3CCOC4(CCN(c5cc(NCc6ccccc6)ncn5)CC4)C3)cn2)CC1 please.
Result: 280
